# Tested on: Mus musculus
# testDescription: In vivo antimalarial activity against Plasmodium yoelii in Swiss mice (Mus musculus) on day 4 at the dose of 96 mg/kg/day intramuscular.
# Assay type: functional
testReadout: Suppression (%)
Numbers only, in %.

Lab note: each compound below needs its Suppression filled in.
1. C=C(CCC(O)c1cccc2ccccc12)C1COC2(CCCCC2)OO1 (stereo not drawn)
2. C=C(CCC(O)c1ccc(-c2ccccc2)cc1)C1COC2(CCCCC2)OO1 (stereo not drawn)
3. C=C(CCC(O)c1ccc(Cl)cc1)C1COC2(CCCCC2)OO1 (stereo not drawn)
4. C=C(CCC(O)c1cccc2ccccc12)C1COC2(OO1)C1CC3CC(C1)CC2C3 (stereo not drawn)
5. C=C(CCC(O)c1ccccc1)C1COC2(CCCCC2)OO1 (stereo not drawn)

1: 100; 2: 96.4; 3: 100; 4: 72.13; 5: 94.5

====

So I've got a bunch of compounds here, and I need their Suppression values.
# Tested on: Mus musculus
# testDescription: In vivo antimalarial activity against Plasmodium yoelii in Swiss mice (Mus musculus) on day 4 at the dose of 24 mg/kg/day intramuscular.
# Format: functional
Give bare numbers, in %.

compound	testedSystem	Suppression, %
C[C@@H]1CC[C@H]2[C@@H](C)C(=O)O[C@@H]3O[C@@]4(C)CC[C@@H]1[C@]32OO4	Mus musculus	100
C=C(CCC(O)c1ccc(-c2ccccc2)cc1)C1COC2(CCCC2)OO1 (centres undefined)	Mus musculus	85.2
C=C(CCC(O)c1ccccc1)C1COC2(CCCC2)OO1 (centres undefined)	Mus musculus	67.7

Query compound follows.
So, C=C(C)C(O)CCC(=C)C1COC2(OO1)C1CC3CC(C1)CC2C3 (centres undefined) ? Its Suppression was 67.7

====

# System: Mus musculus
# testDescription: Mean survival time calculated for the mice which died during 28 day observation period at the dose of 48 mg/kg/day i.m.
# Assay type: functional
# assaySetup: route intramuscular
testReadout: MST
Answers are plain numbers.

compound	MST
C=C(CCC(O)c1ccc(Cl)cc1)C1COC2(CCCC2)OO1 (stereo not given)	14.57
C=C(CCC(O)c1cccc2ccccc12)C1COC2(CCCCC2)OO1 (stereo not given)	14.2
C=C(C)C(O)CCC(=C)C1COC2(OO1)C1CC3CC(C1)CC2C3 (stereo not given)	14.8

Each compound below has a reported value. Please supply its MST.
1. C=C(CCC(O)c1ccc(-c2ccccc2)cc1)C1COC2(CCCC2)OO1 (stereo not given)
2. C=C(CCC(O)c1cccc2ccccc12)C1COC2(CCCC2)OO1 (stereo not given)

1. 16.75
2. 15.75
